testSystem: HLA-A*3301 (Homo sapiens, UniProt P04439, A270S/D185E/E176V/E277Q/E87N/F33T/G231S/H175R/I121M/I218V/I322F/K168Q/K210R/L300P/L318F/M331R/P217A/Q86R/Q94H/R138Q/T323A/T345S/T97I/V358M/Y195H)
testName: biochemical
Type: binding
pIC50: −log10 of the molar value. Ends that are not written are not given here.
Quick reference: pIC50 of the listed items.

inputsequence="KLVGINMSKK [PB1.471]" reportedproperty=pIC50 observedmeasurement="< 5.00"
inputsequence="KFLPDLYDYK [PA.104]" reportedproperty=pIC50 observedmeasurement="< 5.00"

Proceed to the following item.
Look up pIC50: VLRGFLILGK [PB2.690]
< 5.00
